conditionsUsed: human gut metagenome, 24 h, 2 µM; further: call rule not given here;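 further: incubated anaerobically, with remaining drug quantified by LC–MS at nine sampling points across the 24 h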
reportedEndpoint: Bacterial Biotransformation

>>> df
                                   molecule             reportedendpoint             endpointvalue
0  C[C@]12C=CC(=O)C=C1CC[C@@H]1[C@@H]2C(=O)C[C@@]2(C)[C@H]1CC[C@]2(O)C(=O)CO  Bacterial Biotransformation      Compound metabolized
1  C[C@@H](c1ncncc1F)[C@](O)(Cn1cncn1)c1ccc(F)cc1F  Bacterial Biotransformation      Compound metabolized
2  CCN(CC)C(=O)C1(c2ccccc2)CC1CN (centres undefined)  Bacterial Biotransformation  Compound NOT metabolized
3  COc1cc(NC(C)CCCN)c2ncccc2c1.O=P(O)(O)O.O=P(O)(O)O (centres undefined) [PRIMAQUINE PHOSPHATE]  Bacterial Biotransformation  Compound NOT metabolized
4          COc1ccc2cc([C@H](C)C(=O)O)ccc2c1  Bacterial Biotransformation      Compound metabolized

Give Bacterial Biotransformation for each listed item.
1. O=C(O)CCC(=O)O.O=C(O[C@H]1CN2CCC1CC2)N1CCc2ccccc2[C@@H]1c1ccccc1 [SOLIFENACIN SUCCINATE]
2. CC(CCc1ccccc1)NCC(O)c1ccc(O)c(C(N)=O)c1 (centres undefined)
3. CC[C@@]1(O)C(=O)OCc2c1cc1n(c2=O)Cc2cc3c(CN(C)C)c(O)ccc3nc2-1
4. COc1cc(C(=O)NCc2ccc(OCCN(C)C)cc2)cc(OC)c1OC [TRIMETHOBENZAMIDE]

**Result**
1: Compound NOT metabolized; 2: Compound NOT metabolized; 3: Compound NOT metabolized; 4: Compound NOT metabolized
